# System: Saccharomyces cerevisiae
# Test protocol: protein stability index of tFT-peptide fusion (C-terminal peptide) (PSI (0-1 scale)); higher = more stable (slower turnover)
# Recorded conditions: genetic background: wild type; temperature: 30 C
Readout name: protein stability index

INSERT INTO measurements (entry_sequence, target_system, readout_name, result) VALUES
  ('PPPPLCPPPLSF', 'Saccharomyces cerevisiae', 'protein stability index', 0.638),
  ('PSLSPLPPRTTS', 'Saccharomyces cerevisiae', 'protein stability index', 0.732),
  ('ILCVEFFVSVSV', 'Saccharomyces cerevisiae', 'protein stability index', 0.218),
  ('IFLLLRRIIALS', 'Saccharomyces cerevisiae', 'protein stability index', 0.107),
  ('HNKTTNGNSHKN', 'Saccharomyces cerevisiae', 'protein stability index', 0.715),
  ('KKDRRGGGPGGG', 'Saccharomyces cerevisiae', 'protein stability index', 0.691),
  ('FGLMCFIFYVLV', 'Saccharomyces cerevisiae', 'protein stability index', 0.307),
  ('PTRPSRPPRPPP', 'Saccharomyces cerevisiae', 'protein stability index', 0.598),
  ('ERARGKGAGKAE', 'Saccharomyces cerevisiae', 'protein stability index', 0.688),
  ('IPHHFSPPLPSP', 'Saccharomyces cerevisiae', 'protein stability index', 0.772),
  ('ERERQREKEKLK', 'Saccharomyces cerevisiae', 'protein stability index', 0.673),
  ('LAVFSSPELSFP', 'Saccharomyces cerevisiae', 'protein stability index', 0.756);

====

# System: Saccharomyces cerevisiae
# Test protocol: protein stability index of tFT-peptide fusion (C-terminal peptide) (PSI (0-1 scale)); higher = more stable (slower turnover)
# Recorded conditions: genetic background: das1 deletion; temperature: 37 C
Kindly note that classification relies on protein stability index with these boundaries: lo: < 0.4; med: ≥ 0.4 and < 0.6; hi: ≥ 0.6

INSERT INTO assay_data (entry_sequence, target_system, class_assignment) VALUES
  ('LFVFTYPFLSWL', 'Saccharomyces cerevisiae', 'hi'),
  ('SIQRKIRRMKEN', 'Saccharomyces cerevisiae', 'hi'),
  ('NSCHFYSRFYLA', 'Saccharomyces cerevisiae', 'hi'),
  ('FVYFLLVVCFAF', 'Saccharomyces cerevisiae', 'lo'),
  ('VMYRGVRISWFL', 'Saccharomyces cerevisiae', 'med'),
  ('LGVCLFFVRCWS', 'Saccharomyces cerevisiae', 'lo'),
  ('SFLVFLYFFMVF', 'Saccharomyces cerevisiae', 'med'),
  ('LFTTYVFLVFFQ', 'Saccharomyces cerevisiae', 'med'),
  ('MFLHLGLFIMSH', 'Saccharomyces cerevisiae', 'med'),
  ('VERKLMTIYIKI', 'Saccharomyces cerevisiae', 'hi'),
  ('VFVLFCAFVRAL', 'Saccharomyces cerevisiae', 'med'),
  ('RICCLFILLFCL', 'Saccharomyces cerevisiae', 'med'),
  ('LWNFYELVVYAM', 'Saccharomyces cerevisiae', 'lo'),
  ('VVLCQVCVLWGW', 'Saccharomyces cerevisiae', 'lo'),
  ('GLYLVFMGFVPC', 'Saccharomyces cerevisiae', 'med'),
  ('RRRRHVDHSTQR', 'Saccharomyces cerevisiae', 'med'),
  ('CQVSEWIRYRFL', 'Saccharomyces cerevisiae', 'hi');

====

# protein stability index values compiled below
# Test system: Saccharomyces cerevisiae
# Test protocol: protein stability index of tFT-peptide fusion (C-terminal peptide) (PSI (0-1 scale)); higher = more stable (slower turnover)
# Recorded conditions: genetic background: cdc34-1; temperature: 37 C
Readout name: protein stability index

INSERT INTO assay_data (entry_sequence, result) VALUES
  ('YCAMVAVGVVGG', 0.468),
  ('ALLMVCFGFSLV', 0.445),
  ('YHRKAILMCTFS', 0.506),
  ('GILPIYNIISRL', 0.968),
  ('DSSRRKRLICMN', 0.611),
  ('GVVCCVVVGRMG', 0.619),
  ('GLLGRCPVVVFG', 0.385),
  ('LRFFYFLHFCIL', 0.36),
  ('TLFSFLLVFVFG', 0.209),
  ('SWFNLLSILPRD', 0.699),
  ('FFTLSTVKLLRV', 0.497),
  ('LWLFIVCWVGCV', 0.234),
  ('VAALLCWLHLYA', 0.602),
  ('PLSSHIPVHEAR', 0.659);

====

# Tested on: Saccharomyces cerevisiae
# Test protocol: protein stability index of tFT-peptide fusion (C-terminal peptide) (PSI (0-1 scale)); higher = more stable (slower turnover)
# Recorded conditions: genetic background: wild type; temperature: 30 C
Quick rule for you: protein stability index at 0.6 or higher means criterion met, lower means criterion not met.

INSERT INTO results (entry_sequence, class_assignment) VALUES
  ('HGNWGSSPVVSG', 'criterion met'),
  ('PDVFLLHASPPG', 'criterion met'),
  ('FFRVCNALLLVC', 'criterion not met'),
  ('SLPRLRSCPSSF', 'criterion met'),
  ('APSPPSSPSAPP', 'criterion met'),
  ('DGCRLGDFLNRV', 'criterion met'),
  ('KKKQKTIYRQKE', 'criterion met'),
  ('YRQAAIKNIKRK', 'criterion met'),
  ('PCVPRLLPLQLS', 'criterion not met');

====

# Tested on: Saccharomyces cerevisiae
# Test protocol: protein stability index of tFT-peptide fusion (C-terminal peptide) (PSI (0-1 scale)); higher = more stable (slower turnover)
# Recorded conditions: genetic background: das1 deletion; temperature: 30 C
# if value of protein stability index reaches 0.7, tag true; if it stays below, tag false

INSERT INTO results (entry_sequence, class_assignment) VALUES
  ('VRYVIIHRHTST [RMD8 C-terminal 12 aa]', 'false'),
  ('DALDIANRIGYI [RPL25 C-terminal 12 aa]', 'false'),
  ('NMIIDTLGGNEK [COQ6 C-terminal 12 aa]', 'true'),
  ('LVSMTILVSGLI [SHE9 C-terminal 12 aa]', 'false'),
  ('NNRYKNFSPKRL [YHR071C-A C-terminal 12 aa]', 'true'),
  ('GNISLLYSQGRL [RSC6 C-terminal 12 aa]', 'true'),
  ('EKMKKNQSIGWF [MRPL25 C-terminal 12 aa]', 'true'),
  ('HTSSKEIDLLSF [ENT3 C-terminal 12 aa]', 'true'),
  ('DGSADLGGWETM [UBR2 C-terminal 12 aa]', 'true'),
  ('FHPLFYCSALVF [YIL142C-A C-terminal 12 aa]', 'false');

====

# Test system: Saccharomyces cerevisiae
# Test protocol: protein stability index of tFT-peptide fusion (C-terminal peptide) (PSI (0-1 scale)); higher = more stable (slower turnover)
# Recorded conditions: genetic background: wild type; temperature: 30 C
Readout name: protein stability index

INSERT INTO results (entry_sequence, result) VALUES
  ('RFLEKNKKVIDK', 0.742),
  ('VFGLSPLLQPSD', 0.654),
  ('LCGVRGESGLEG', 0.685),
  ('SPASPLDPSSSS', 0.712),
  ('LFWFRGTIVTPR', 0.693),
  ('FCPVGVFCGIFG', 0.644),
  ('PSVYAASPPLPP', 0.68),
  ('GWMTGMEERGGG', 0.674),
  ('ERIGVEERKGLE', 0.658),
  ('QERKILGRIKQA', 0.265),
  ('INPLAHCSISRS', 0.709),
  ('VGDGAVGKTRGD', 0.681),
  ('PMPPPHLLPSSS', 0.723),
  ('LDAVRCRDKAVV', 0.654),
  ('VCLWAIHLSGCW', 0.475),
  ('WDVVECCLWRYR', 0.681),
  ('ASRWVLLVGGGV', 0.652),
  ('FYKKKIRRGVNV', 0.661),
  ('KKEKKKQKRNNN', 0.782),
  ('RVGRCYPSIVRS', 0.652),
  ('RYKALEAQGPRF', 0.717),
  ('PLSPTSPLPSPA', 0.678),
  ('WVLFRNKSVAAS', 0.527),
  ('GCPGGGRPGPRA', 0.705),
  ('SAVPFLRASRNA', 0.693),
  ('APSDRRRTPTPT', 0.69),
  ('TVPGKDEGEESV', 0.696),
  ('PPAPPPRLPSPP', 0.713),
  ('PSHLPRARRPPR', 0.686),
  ('PPPFPPPSFASR', 0.696),
  ('RPRELHNSETVY', 0.683),
  ('AVSFVTLSIMVM', 0.195),
  ('PLSPPHRLTAAL', 0.756),
  ('HVVVSPRSNRIL', 0.743),
  ('PPPGAPAPPPSS', 0.692);
